Assay explanation: physchem

Molecule	chromatographic logP
CSc1cccc(C#CCON=Cc2ccc(OC(C)C)nc2)c1	4.87
COc1ccc(C=NOCC#Cc2cccc(SC)c2)c(OC)n1	4.93
COc1cc(F)ccc1C=NOCC#Cc1ccc(F)c(F)c1[S+](C)[O-] (centres unmarked)	2.78
COc1ccc(C=NOCC#Cc2ccc(F)c(SC)c2F)cn1	4.1
COc1ccccc1-c1ccn(CC#Cc2cccc(SC)c2)n1	3.43

====

Assay explanation: physchem
Listing of entries alongside the reported chromatographic logP.

Compound	chromatographic logP
CCOc1nc(C=NOCC#Cc2cccc(SC)c2)ccc1F	4.76
COc1ncc(C=NOCC#Cc2cccc([S+](C)[O-])c2)cc1F (stereo not shown)	2.28
CSc1ccc(C=NOCC#Cc2cccc([S+](C)[O-])c2)cn1 (stereo not shown)	2.23
COc1cccc(OC)c1C=NOCC#Cc1cccc(SC)c1	3.77
CC[S+]([O-])c1cc(C#CCON=Cc2ccccc2OC)ccc1OC (stereo not shown)	3.07
CSc1nccnc1C=NOCC#Cc1cccc(CC#N)c1	2.99
COc1ccc(C=NOCC#Cc2cc(SC)c(F)c(SC)c2)cn1	4.57
COc1ccccc1C=NOCC#Cc1ccc(F)c(SC)c1	4.51
COc1cc(F)ccc1C=NOCC#Cc1ccccc1[S+](C)[O-] (stereo not shown)	2.86
COc1ccc(C=NOCC#Cc2cccc([S+](C)[O-])c2)c(OC)n1 (stereo not shown)	2.89
COc1cc(F)ccc1C=NOCC#Cc1ccc(C#N)c(SC)c1	3.97
CCC(=NOCC#Cc1cccc(SC)c1)c1cccc(C)n1	4.77
COc1ncc(Cl)nc1C=NOCC#Cc1cccc(CC#N)c1	3.09
COc1ccc(C=NOCC#Cc2cccc(SC)c2)c(OC)c1	4.4
CCC(=NOCC#Cc1cccc(SC)c1)c1ccc(F)cc1	4.97
CC(=NOCC#Cc1cccc(CC#N)c1)c1cccc(C)n1	2.96
CCC(=NOCC#Cc1cccc(CC#N)c1)c1ccccc1	3.87
COc1ccc(C=NOCC#Cc2cccc(SC)c2)cn1	4
COc1cc(F)ccc1C=NOCC#Cc1cc(C)c(F)c(SC)c1	5.05

====

Assay explanation: physchem
# Lookup of reported chromatographic logP keyed by entry

Compound	chromatographic logP
CCC(=NOCC#Cc1cccc([S+](C)[O-])c1)c1ccccc1 (stereo not drawn)	2.93
COc1ccccc1C=NOCC#Cc1cc(C)c(F)c(SC)c1	5.01
CCC(=NOCC#Cc1cccc(CC#N)c1)c1cccc(Cl)c1Cl	4.84
COc1ccccc1C=NOCC#Cc1cccc([S+]([O-])C(F)(F)F)c1 (stereo not drawn)	3.88
CSc1cccc(C#CCON=Cc2cc(C(F)(F)F)c(Cl)cn2)c1	4.92
COc1ncc(C=NOCC#Cc2cccc(SC)c2)cc1Br	4.81
CCOc1nc(C=NOCC#Cc2cccc([S+](C)[O-])c2)ccc1F (stereo not drawn)	2.78
CCC(=NOCC#Cc1cccc(OC)c1)c1ccc(F)cc1	4.54
CCC(=NOCC#Cc1cccc(C(F)(F)F)c1)c1ccccc1F	5.03

====

Assay explanation: physchem
We begin with a simple list: items and their reported chromatographic logP.

Compound	chromatographic logP
COc1ccc(C=NOCC#Cc2cc(C)c(F)c([S+](C)[O-])c2)cn1 (stereo not drawn)	2.76
CSc1cccc(C#CC(C)ON=Cc2cccc(C)n2)c1 (stereo not drawn)	3.79
Cc1cccc(C=NOC(C)C#Cc2cccc([S+](C)[O-])c2)n1 (stereo not drawn)	1.57

====

Assay explanation: physchem
Labelling: chromatographic logP reported below 4 becomes met; at or above becomes not met.

Compound	Label value
Cc1ccc(C#CCON=Cc2cccnc2)cc1[S+](C)[O-] (stereo not drawn)	met
COc1ccc(C=NOCC#Cc2cccc([S+](C)[O-])c2)c(OC)c1 (stereo not drawn)	met
COc1nccnc1C=NOCC#Cc1cccc(S(C)(=O)=O)c1	met
CCC(=NOCC#Cc1cccc(CC#N)c1)c1ccccc1F	met
CS(=O)(=O)c1ccc(C=NOCC#Cc2cccc(CC#N)c2)cn1	met
N#CCc1cccc(C#CCON=Cc2ccc(C3CCCC3)nc2)c1	not met
CCSc1cc(C#CCON=Cc2ccc(OC)nc2)ccc1C	not met
COc1ccc(C=NOCC#Cc2ccc(OC)c(SC)c2)cn1	met

====

Overview of recorded chromatographic logP for various molecules
Assay explanation: physchem
Recorded endpoint: chromatographic logP

Molecule	Test value
CSc1ccc(C=NOCC#Cc2cccc(CC#N)c2)cn1 [Beispiel 5.187]	3.18
COc1ccc(C=NOCC#Cc2ccc(F)c(F)c2SC)cn1 [Beispiel 5.146]	4.11
COc1cc(F)ccc1C=NOCC#Cc1cccc(SC(C)C)c1 [Beispiel 1.431]	5.26
COc1cc(F)ccc1C=NOCC#Cc1ccc(F)c([S+](C)[O-])c1F (stereo not drawn) [Beispiel 1.438]	2.75
CCC(=NOCC#Cc1cccc([S+](C)[O-])c1)c1ccc(F)cc1 (stereo not drawn) [Beispiel 1.423]	3.14
CCOc1ncc(C=NOCC#Cc2cccc(SC)c2)cc1F [Beispiel 5.199]	4.68
COc1nccnc1C=NOCC#Cc1cccc(SC)c1 [Beispiel 4.084]	3.34
COc1cc(F)ccc1C=NOCC#Cc1cc(C)c(F)c([S+](C)[O-])c1 (stereo not drawn) [Beispiel 1.443]	3.43
COc1ncc(C=NOCC#Cc2cccc(CC#N)c2)cc1F [Beispiel 5.044]	3.24

====

Assay explanation: physchem
# if measured chromatographic logP < 4: 1 (yes)  # else: 0 (no)

Compound	Label value
CSc1cccc(C#CCON=Cc2nccnc2SC)c1	0 (no)
COc1ccc(C=NOCC#Cc2cccc(CC#N)c2)c(OC)n1	1 (yes)
CCSc1cc(C#CCON=Cc2ccc(F)cc2OC)ccc1OC	0 (no)
COc1cc(F)ccc1C=NOCC#Cc1ccc(F)c(SC)c1	0 (no)
CCC(=NOCC#Cc1cccc(S(C)(=O)=O)c1)c1cccc(C)n1	1 (yes)
CCC(=NOCC#Cc1cccc([S+](C)[O-])c1)c1cccc(C)n1 (stereo not shown)	1 (yes)
COc1cc(F)ccc1C=NOCC#Cc1ccc(F)c(F)c1SC	0 (no)
COc1ccc(C=NOCC#Cc2cccc(SC(C)C)c2)cn1	0 (no)
COc1ccccc1C=NOC(C)C#Cc1cccc(SC)c1 (stereo not shown)	0 (no)
C[S+]([O-])c1cccc(C#CCON=Cc2cc(C(F)(F)F)c(Cl)cn2)c1 (stereo not shown)	1 (yes)
COc1ncccc1C=NOCC#Cc1ccc(C)c([S+](C)[O-])c1 (stereo not shown)	1 (yes)
COc1ccccc1C=NOCC#Cc1ccc(OC)c(SC)c1	0 (no)
COc1ccc(C=NOCC#Cc2ccc(C#N)c(SC)c2)cn1	1 (yes)
COc1ccccc1C=NOCC#Cc1cccc(SC(C)C)c1	0 (no)
COc1ccc(C=NOCC#Cc2ccccc2[S+](C)[O-])cn1 (stereo not shown)	1 (yes)
COc1ccccc1C=NOCC#Cc1cccc(F)c1F	0 (no)
CCC(=NOCC#Cc1cccc(OC)c1)c1ccccc1F	0 (no)

====

Assay explanation: physchem
Answer label 0 if chromatographic logP is under 3, and label 1 if it is 3 or more.

Compound	Label value
COc1ncc(Cl)nc1C=NOCC#Cc1cccc([S+](C)[O-])c1 (stereo not drawn)	label 0
CCC(=NOCC#Cc1cccc(OC)c1)c1ccc(C)cc1	label 1
CCC(=NOCC#Cc1cccc(C(F)(F)F)c1)c1ccccc1	label 1
CCC(=NOCC#Cc1cccc([S+](C)[O-])c1)c1ccc(C)cc1 (stereo not drawn)	label 1
COc1ccccc1C=NOCC#Cc1ccc(F)c([S+](C)[O-])c1F (stereo not drawn)	label 0
COc1cc(F)ccc1C=NOCC#Cc1cccc(OC(F)(F)F)c1	label 1
COc1nccnc1C=NOCC#Cc1cccc(CC#N)c1	label 0
COc1cc(F)ccc1C=NOCC#Cc1ccc(OC)c(SC)c1	label 1
COc1ncc(C=NOCC#Cc2cccc(SC)c2)cc1F	label 1

====

Assay explanation: physchem
Binary call on chromatographic logP: criterion met from 3 upward, criterion not met beneath that.

Molecule	Label value
COc1ccc(C=NOCC#Cc2ccccc2SC)cn1	criterion met
COc1ccc(C=NOCC#Cc2cccc(S(C)(=O)=O)c2)cn1	criterion not met
COc1nccnc1C=NOCC#Cc1cccc([S+](C)[O-])c1 (stereo not shown)	criterion not met
CC[S+]([O-])c1cc(C#CCON=Cc2ccc(F)cc2OC)ccc1C (stereo not shown)	criterion met
CCC(=NOCC#Cc1cccc(SC)c1)c1ccccc1	criterion met
CC[S+]([O-])c1cc(C#CCON=Cc2ccc(OC)nc2)ccc1OC (stereo not shown)	criterion not met
CC[S+]([O-])c1cc(C#CCON=Cc2ccc(F)cc2OC)ccc1OC (stereo not shown)	criterion met
CCSc1cccc(C#CCON=Cc2ccccc2OC)c1	criterion met
CCOc1ccc(C=NOCC#Cc2cccc(SC)c2)cn1	criterion met
C=CCSc1cccc(C#CCON=Cc2ccc(F)cc2OC)c1	criterion met
COc1ccc(C=NOCC#Cc2ccc(F)c(F)c2[S+](C)[O-])cn1 (stereo not shown)	criterion not met
C[S+]([O-])c1cccc(C#CCON=Cc2ccc(OCC(F)(F)F)nc2OCC(F)(F)F)c1 (stereo not shown)	criterion met
C=CCSc1cccc(C#CCON=Cc2ccc(OC)nc2)c1	criterion met
CSc1cccc(C#CCON=Cc2ccc(OCC(F)(F)F)nc2OCC(F)(F)F)c1	criterion met
CCC(=NOCC#Cc1cccc(CC#N)c1)c1ccc(C)cc1	criterion met
CSc1cccc(C#CCON=Cc2ccc(C3CCCC3)nc2)c1	criterion met
COc1ccccc1C=NOCC#Cc1ccc(F)c(SC)c1F	criterion met
